The measurements presented in this section are drawn from patent US20150167004.

TARGET OR SYSTEM: DNMT1 (Homo sapiens, UniProt P26358 P26358:1-1616)
Sequence (P26358 whole entry, one chain of several): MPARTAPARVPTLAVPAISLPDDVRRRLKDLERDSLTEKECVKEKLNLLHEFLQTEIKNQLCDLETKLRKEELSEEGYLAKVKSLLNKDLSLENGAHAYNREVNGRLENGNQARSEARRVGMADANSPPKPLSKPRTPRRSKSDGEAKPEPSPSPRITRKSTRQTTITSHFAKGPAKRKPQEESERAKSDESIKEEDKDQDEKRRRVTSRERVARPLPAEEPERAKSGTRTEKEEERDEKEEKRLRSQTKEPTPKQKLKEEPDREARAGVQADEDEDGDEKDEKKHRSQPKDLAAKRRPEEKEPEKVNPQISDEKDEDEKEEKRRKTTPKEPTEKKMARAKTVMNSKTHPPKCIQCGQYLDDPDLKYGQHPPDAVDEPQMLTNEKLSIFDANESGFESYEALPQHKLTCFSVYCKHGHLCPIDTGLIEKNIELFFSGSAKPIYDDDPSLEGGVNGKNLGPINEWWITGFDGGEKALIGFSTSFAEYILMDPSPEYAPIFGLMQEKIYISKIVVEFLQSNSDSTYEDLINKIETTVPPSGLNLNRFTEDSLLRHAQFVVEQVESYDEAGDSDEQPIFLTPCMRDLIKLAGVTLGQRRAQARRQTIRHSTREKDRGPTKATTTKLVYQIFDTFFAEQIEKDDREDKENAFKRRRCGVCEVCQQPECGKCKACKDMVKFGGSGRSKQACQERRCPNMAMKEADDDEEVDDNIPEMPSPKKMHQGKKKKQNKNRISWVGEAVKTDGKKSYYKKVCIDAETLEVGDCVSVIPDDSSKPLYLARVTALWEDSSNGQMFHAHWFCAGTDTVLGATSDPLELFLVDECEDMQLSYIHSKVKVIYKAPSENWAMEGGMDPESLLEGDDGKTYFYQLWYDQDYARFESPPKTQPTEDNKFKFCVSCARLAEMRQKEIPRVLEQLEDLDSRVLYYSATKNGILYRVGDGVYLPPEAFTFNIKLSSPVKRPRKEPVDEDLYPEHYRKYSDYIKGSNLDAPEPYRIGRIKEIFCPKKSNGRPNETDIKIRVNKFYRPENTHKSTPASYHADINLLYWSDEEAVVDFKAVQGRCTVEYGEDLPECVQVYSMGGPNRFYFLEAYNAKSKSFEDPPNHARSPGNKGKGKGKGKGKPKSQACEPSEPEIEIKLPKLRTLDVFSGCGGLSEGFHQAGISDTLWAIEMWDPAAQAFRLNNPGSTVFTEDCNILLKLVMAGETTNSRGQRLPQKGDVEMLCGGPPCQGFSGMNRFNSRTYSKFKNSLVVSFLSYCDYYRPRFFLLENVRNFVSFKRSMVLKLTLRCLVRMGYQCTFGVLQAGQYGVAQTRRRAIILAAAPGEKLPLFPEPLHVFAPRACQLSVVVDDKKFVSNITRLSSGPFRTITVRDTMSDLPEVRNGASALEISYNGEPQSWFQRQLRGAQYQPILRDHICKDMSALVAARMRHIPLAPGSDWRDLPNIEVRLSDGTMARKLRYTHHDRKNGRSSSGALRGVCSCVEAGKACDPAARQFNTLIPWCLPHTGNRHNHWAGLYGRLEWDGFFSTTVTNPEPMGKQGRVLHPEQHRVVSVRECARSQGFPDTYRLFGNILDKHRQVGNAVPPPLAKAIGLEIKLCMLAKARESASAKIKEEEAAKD
TEST PROTOCOL: inhibition; 25 nM DNMT1, poly(dI:dC) substrate, 1 uM SAM; Table 5 gives 5.52 uM
CONDITION DESCRIPTION: hairpin
PROPERTY: IC50 (nM)

| BINDER | RECORDED NUMBER |
| --- | --- |
| CCTATGCGATCGAGTTTTCTCGATCGCATAGG (structured_DNA, 5-aza-5,6-dihydro-dC at 21 and 25; phosphodiester [21, 25 (5-aza-5,6-dihydro-dC)]) [MTC-422] | 1430 |
